tested on: C. krusei; assay: Antifungal Activity Assay (broth microtiter MIC), C. krusei; type: cell-based, Candida krusei; conditions: Pichia kudriavzevii, ATCC6258, 48 h, Table 3b (additional results); ATCC 6258; 3 replicates; MIC recorded at 48 h; read-out: MIC, C. krusei ATCC 6258

STRUCTURE_NOTATION: Cc1c(-n2nccn2)sc2c1c(=O)n(C(C)(C)C(=O)NC(C)C)c(=O)n2C[C@H](OC(C)C)c1cc(F)ccc1OCC1COC1
MIC: 1.01 to 2 µg/mL
//
STRUCTURE_NOTATION: COc1ccc(F)cc1[C@H](Cn1c(=O)n(C(C)(C)C(=O)N2CCCC2)c(=O)c2c(C)c(-n3nccn3)sc21)OCCCO
MIC: 1.01 to 2 µg/mL
//
STRUCTURE_NOTATION: COc1ccccc1[C@@H](O)Cn1c(=O)n(C(C)(C)C(=O)N2CCCC2)c(=O)c2c(C)c(-n3nccn3)sc21
MIC: 1.01 to 2 µg/mL
//
STRUCTURE_NOTATION: COc1ccc(F)cc1[C@H](Cn1c(=O)n(C(C)(C)C(=O)N2CC(O)C2)c(=O)c2c(C)c(-n3nccn3)sc21)OCC(C)C
MIC: 1.01 to 2 µg/mL
//
STRUCTURE_NOTATION: COc1ccc(F)cc1[C@H](Cn1c(=O)n(C(C)(C)C(=O)NC(C)C)c(=O)c2c(C)c(-n3nccn3)sc21)OC[C@H](C)C(=O)O
MIC: 0.25 to 1 µg/mL
//
STRUCTURE_NOTATION: CNC(=O)C(C)(C)n1c(=O)c2c(C)c(-n3nccn3)sc2n(C[C@H](OCCC#N)c2cc(F)ccc2OC)c1=O
MIC: 2.01 to 4 µg/mL
